Test system: Cotton
Test: Post-emergent herbicidal test, cotton
Type: in vivo
Design: key: 1: no perceptible injury; 2: intermediate degrees of injury; 3: intermediate degrees of injury; 4: intermediate degrees of injury; 5: the plant was dead
Settings: Table III; 2500 parts per million, after ten days
Below is a list of entries, each paired with its recorded Post Emergent Herbicidal, Cotton value.
Keep the answer to the number alone.

The examples below pair each entry with its known result.
CCCCCCCCCCCCCCCC(=O)OC1=C(c2ccccc2C)C(=O)C2CCCCC12 (centres unmarked) [drawing 17] : 2
CCCCCCCCCCCCCCCC(=O)OC1=C(c2ccccc2C)C(=O)c2ccccc21 [reference compound] : 1
CCCCC(CC)C(=O)OC1=C(c2ccccc2C)C(=O)CC1 (centres unmarked) [drawing 21] : 2
CCCCCCCCCC(=O)OC1=C(c2cc(C)ccc2C)C(=O)c2ccccc21 [reference compound] : 1
Cc1ccccc1C1=C(OC(=O)C(C)(C)C)C2CCCCC2C1=O (centres unmarked) [drawing 24] : 3

Sample CCCCC(CC)C(=O)OC1=C(c2ccccc2C)C(=O)C2CCCCC12 (centres unmarked) [drawing 22] — what was its Post Emergent Herbicidal, Cotton?
2

Moving on to the next molecule: CCCCCCCCCC(=O)OC1=C(c2ccccc2C)C(=O)c2ccccc21 [reference compound]
1

Moving on to the next molecule: CCCCCCCCCC(=O)OC1=C(c2cc(C)ccc2C)C(=O)C2CCCCC12 (centres unmarked) [drawing 19]
1

Moving on to the next molecule: CCCCCCCCCC(=O)OC1=C(c2ccccc2C)C(=O)C2CCCCC12 (centres unmarked) [drawing 15]
3

Moving on to the next molecule: Cc1ccccc1C1=C(OC(=O)C(C)(C)C)c2ccccc2C1=O [reference compound]
1

Moving on to the next molecule: CCCCC(CC)C(=O)OC1=C(c2ccccc2C)C(=O)c2ccccc21 (centres unmarked) [reference compound]
1

###

Below is a list of entries, each paired with its recorded Pre-emergent Herbicidal, Mustard value.
Tested on: Mustard
Test: Preliminary herbicide seed germination test (pre-emergent), mustard
Assay type: in vivo, Brassica pincea var. foliosa (Florida broadleaf)
Parameters: key: 5: no seedling emerged; 4: few seedlings emerged and/or very severe stunting; 3: moderate reduction in stand and/or moderate stunting.; 2: very slight reduction in stand and/or slight stunting; 1: no injury, seedlings appear no different with respect to stand or growth than untreated controls
Settings: Table II; ten to twelve days after application
Keep the answer to the number alone.

The examples below pair each entry with its known result.
CC(=O)OC1=C(c2ccc(Cl)cc2Cl)C(=O)CC1 [Compound 3] : 1
CC(=O)OC1=C(c2cc(C)ccc2C)C(=O)CC1 [Compound 11] : 3
Cc1ccc(C)c(C2=C(OC(=O)C(C)C)CCC2=O)c1 [Compound 12] : 1
CCCCC(CC)C(=O)OC1=C(c2ccc(C)cc2C)C(=O)CC1 (centres unmarked) [Compound 9] : 2
CCCCCCCCCCCCCCCC(=O)OC1=C(c2cc(C)ccc2C)C(=O)CC1 [Compound 14] : 1

Sample Cc1ccc(C2=C(OC(=O)c3ccccc3)C3CCCCC3C2=O)c(C)c1 (centres unmarked) [Compound 27] — what was its Pre-emergent Herbicidal, Mustard?
5

Moving on to the next compound: CC(=O)OC1=C(c2cc(C)ccc2C)C(=O)C2CCCCC12 (centres unmarked) [Compound 28]
1

Moving on to the next compound: Cc1ccc(C)c(C2=C(OC(=O)C(C)C)CC(C)C2=O)c1 (centres unmarked) [Compound 16]
2

Moving on to the next compound: CCCCC(CC)C(=O)OC1=C(c2cc(C)ccc2C)C(=O)C2CCCCC12 (centres unmarked) [Compound 30]
1

Moving on to the next compound: CCCCCCCCCC(=O)OC1=C(c2ccccc2C)C(=O)C2CCCCC12 (centres unmarked) [Compound 23]
3

Moving on to the next compound: CCCCCCCCCC(=O)OC1=C(c2cc(C)ccc2C)C(=O)C2CCCCC12 (centres unmarked) [Compound 32]
1

###

Below is a list of entries, each paired with its recorded Post Emergent Herbicidal, Corn value.
Tested on: Corn
Assay: Post-emergent herbicidal test, corn
Assay type: in vivo
Parameters: key: 1: no perceptible injury; 2: intermediate degrees of injury; 3: intermediate degrees of injury; 4: intermediate degrees of injury; 5: the plant was dead
Details: Table III; 2500 parts per million, after ten days

The examples below pair each entry with its known result.
CCCCC(CC)C(=O)OC1=C(c2ccccc2C)C(=O)C2CCCCC12 (centres unmarked) [drawing 22] : 5
CCCCC(CC)C(=O)OC1=C(c2ccccc2C)C(=O)c2ccccc21 (centres unmarked) [reference compound] : 1

Sample Cc1ccccc1C1=C(OC(=O)C(C)(C)C)C2CCCCC2C1=O (centres unmarked) [drawing 24] — what was its Post Emergent Herbicidal, Corn?
5

Moving on to the next molecule: CCCCCCCCCC(=O)OC1=C(c2ccccc2C)C(=O)c2ccccc21 [reference compound]
1

Moving on to the next molecule: CCCCCCCCCC(=O)OC1=C(c2cc(C)ccc2C)C(=O)c2ccccc21 [reference compound]
1

###

Below is a list of entries, each paired with its recorded Post-emergent Herbicidal, Bean value.
Test system: Bean
Assay: Post-emergent herbicidal test, bean
Type: in vivo
Parameters: key: 1: no perceptible injury; 2: intermediate degrees of injury; 3: intermediate degrees of injury; 4: intermediate degrees of injury; 5: the plant was dead
Conditions: Table II; 2500 parts per million, after ten days
Keep the answer to the number alone.

The examples below pair each entry with its known result.
CCCCCCCCCCCCCCCC(=O)OC1=C(c2cc(C)ccc2C)C(=O)C(C)C1 (stereo not drawn) [Compound 18] : 2
CCCCC(CC)C(=O)OC1=C(c2ccc(Cl)cc2Cl)C(=O)CC1 (stereo not drawn) [Compound 5] : 3
Cc1ccc(C)c(C2=C(OC(=O)C(C)C)CCC2=O)c1 [Compound 12] : 2
CC(=O)OC1=C(c2cc(C)ccc2C)C(=O)C(C)C1 (stereo not drawn) [Compound 15] : 2
O=C1CCC(OC(=O)c2ccccc2)=C1c1ccccc1Cl [Compound 2] : 3

Sample Cc1ccc(C)c(C2=C(OC(=O)C(C)C)CC(C)C2=O)c1 (stereo not drawn) [Compound 16] — what was its Post-emergent Herbicidal, Bean?
3

Moving on to the next compound: CCCCCCCCCC(=O)OC1=C(c2cc(C)ccc2C)C(=O)C2CCCCC12 (stereo not drawn) [Compound 32]
1

Moving on to the next compound: Cc1ccccc1C1=C(OC(=O)C(C)(C)C)C2CCCCC2C1=O (stereo not drawn) [Compound 22]
2

Moving on to the next compound: CCCCC(CC)C(=O)OC1=C(c2ccccc2C)C(=O)C2CCCCC12 (stereo not drawn) [Compound 21]
1

Moving on to the next compound: CC(=O)OC1=C(c2cc(C)ccc2C)C(=O)C2CCCCC12 (stereo not drawn) [Compound 28]
2

Moving on to the next compound: CCCCCCCCCCCCCCCC(=O)OC1=C(c2ccccc2C)C(=O)C2CCCCC12 (stereo not drawn) [Compound 24]
1

Moving on to the next compound: CC(=O)OC1=C(c2cc(C)ccc2C)C(=O)CC1 [Compound 11]
2

Moving on to the next compound: CCCCC(CC)C(=O)OC1=C(c2cc(C)ccc2C)C(=O)C2CCCCC12 (stereo not drawn) [Compound 30]
1

Moving on to the next compound: CC(C)C(=O)OC1=C(c2ccc(Cl)cc2Cl)C(=O)CC1 [Compound 4]
2

Moving on to the next compound: CC(=O)OC1=C(c2ccc(C)cc2C)C(=O)C2CCCCC12 (stereo not drawn) [Compound 25]
1

Cited source: patent US4551547A
